system: TBK1; settings: Compound Concentration (nM):1000;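 also: KINOMEscan scanMAX binding as percent activity remaining versus control; lower means stronger binding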
metric_name: Percent Control (%)
Supply the numeric figure in %, leaving out any unit text.

Lab book: Percent Control of CN1CCN(C(=O)c2ccc(NC(=O)Nc3ccc(N(C)c4ccnc(Nc5ccc(CS(C)(=O)=O)cc5)n4)cc3)cc2)CC1.Cl [GW830263A] noted as 55

Lab book: Percent Control of COc1cc(C)c(N(C)C(=O)CN(C)C)cc1Nc1nc(Nc2cccc(F)c2C(N)=O)c2cc[nH]c2n1 noted as 69

Lab book: Percent Control of COc1cc(/C=N/Nc2ncnc3[nH]ncc23)ccc1O [GW578748X] noted as 50

Lab book: Percent Control of CCS(=O)(=O)c1ccc(OC)c(Nc2ncc(-c3cccc(OC)c3)o2)c1 [GW580509X] noted as 100

Lab book: Percent Control of NS(=O)(=O)c1ccc(N/N=C2\C(=O)Nc3ccc(C(=O)NCc4ccncc4)cc32)cc1 [GW300657X] noted as 33

Lab book: Percent Control of CCn1c(-c2nonc2N)nc2c(C#CC(C)(C)O)nc(OCCNC)cc21.Cl noted as 95

Lab book: Percent Control of CN(C)c1cc2c(Nc3ccc4c(cnn4Cc4ccccc4)c3)ncnc2cn1 [GW282974X] noted as 55

Lab book: Percent Control of NS(=O)(=O)c1ccc(Nc2ncc(-c3ccccc3)o2)cc1 [GW572399X] noted as 100

* * *

Would you kindly list Percent Control for each of these compounds?
system: PRKCE; conditions: Compound Concentration (nM):1000
Supply the numeric figure in %, leaving out any unit text.

Lab book: Percent Control of CC(C)COC(=O)c1ccc2c(c1)/C(=C/Nc1ccc(S(N)(=O)=O)cc1)C(=O)N2 [GW416981X] noted as 100

Lab book: Percent Control of Cl.O=S1CCN(Cc2ccc(-c3ccc4ncnc(Nc5ccc(OCc6ccccc6)c(F)c5)c4c3)o2)CC1 [GW576924A] noted as 91

Lab book: Percent Control of Cl.O=C(Nc1ccc(Oc2ccc3[nH]c(NC(=O)c4ccccc4)nc3c2)cc1)Nc1cc(C(F)(F)F)ccc1F [GW709042A] noted as 100

Lab book: Percent Control of CCn1c(-c2nonc2N)nc2c(C#CC(C)(C)O)nc(OCCNC)cc21.Cl [GSK949675] noted as 0

Lab book: Percent Control of O=C1Nc2ccc(C(=O)c3ccco3)cc2C1=Cc1cc(Cl)c(O)c(Cl)c1 [GW406108X] noted as 100

Lab book: Percent Control of CCc1ccc(Oc2nccc(-c3c(-c4ccc(F)cc4)ncn3C3CCNCC3)n2)cc1 [SB-242719] noted as 95

Lab book: Percent Control of Cl.O=C(Nc1ccc(Oc2ccc3[nH]c(NC(=O)c4ccco4)nc3c2)cc1)Nc1cc(C(F)(F)F)ccc1F [GW683134A] noted as 100

Lab book: Percent Control of NS(=O)(=O)c1ccc(N/N=C2\C(=O)Nc3ccc(-c4cnco4)cc32)cc1 [GW276655] noted as 100

Lab book: Percent Control of COc1cc(N2CCN(C(C)C)CC2)ccc1Nc1nc(Nc2ccc(F)cc2C(=O)NC[C@@H](O)CO)c2cc[nH]c2n1 [GSK1392956A] noted as 100

Lab book: Percent Control of COc1ccc2[nH]c3c4[nH]c5ccc(OC)cc5c4c4c(c3c2c1)C(=O)NC4=O [GW296115X] noted as 75

From: paper PMC7826789
